This section presents compounds with their documented Inhibition Percentage of ApoE Expression values.
- System: apoE expression in human CCF-STTG1 astrocytoma cells
- Assay Comment: ApoE ELISA on conditioned medium of human CCF-STTG1 astrocytoma cells
- Format: cell-based
- Reported Conditions: 10 μM compound, 24 hours
Write the number in % without appending the unit.

CN(C)C(c1ccccc1)(c1ccccc1)c1ccc2ccccc2c1 [Compound 28]    35
c1ccc(C(c2ccccc2)(c2ccc3ccccc3c2)N2CCOCC2)cc1 [Compound 33]    46

Turning now to a further record.
# input Any idea what Inhibition Percentage of ApoE Expression was measured for COc1ccc(C(c2ccccc2)(c2ccccc2)N(C)C)cc1 [Compound 16] ?
# output 35
